Attribution: PubChem BioAssay AID2060351

- Test system: 521955-158-R7-J2-PDC spheroids, viability % test/control;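 further: spheroids exposed to compound for 7 days before readout; 100% = DMSO vehicle control wells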
- assay.info: Anticancer human tumor 521955-158-R7-J2-PDC patient-derived pancreatic carcinoma cell line growth inhibition [TAK]
- protocol.conditions: second compound 3 µM; first compound 0.000316 µM; hits give low values; spheroids with HUVEC and MSC
Would you mind telling me the reported viability, T/C of each entry?
Numbers only, in %.

Consider the worked cases shown below.
molecule: COC1CC2CCC(C)C(O)(O2)C(=O)C(=O)N2CCCCC2C(=O)OC(C(C)CC2CCC(OCCO)C(OC)C2)CC(=O)C(C)C=C(C)C(O)C(OC)C(=O)C(C)CC(C)C=CC=CC=C1C (centres undefined) + CC(C)NCC(C(=O)N1CCN(c2ncnc3c2C(C)CC3O)CC1)c1ccc(Cl)cc1
viability, T/C (%): 84.7
//
molecule: CC(C)CC(NC(=O)CNC(=O)c1cc(Cl)ccc1Cl)B1OC(=O)CC(CC(=O)O)(C(=O)O)O1 (centres undefined) + CC(C)NCC(C(=O)N1CCN(c2ncnc3c2C(C)CC3O)CC1)c1ccc(Cl)cc1
viability, T/C (%): 85.6
//
molecule: CC(C)n1nc(-c2ccc3oc(N)nc3c2)c2c(N)ncnc21 + CC(C)NCC(C(=O)N1CCN(c2ncnc3c2C(C)CC3O)CC1)c1ccc(Cl)cc1
viability, T/C (%): 91.3

Continue with the next molecule.
Summary for this molecule, CC(C)CC(NC(=O)C(Cc1ccccc1)NC(=O)c1cnccn1)B(O)O (centres undefined) + CC(C)NCC(C(=O)N1CCN(c2ncnc3c2C(C)CC3O)CC1)c1ccc(Cl)cc1 : viability, T/C is 86.6
